Recorded Percent Effect for the following compounds
- tgt: Protein translocase subunit SecA (Escherichia coli (strain K12))
- run_description: Assay to Identify E. coli SecA ATPase Inhibitors
- Assay type: functional
- Set-up: scale not given: direction of the effect not stated beside the values
- experimental_setup: 30 µM
Entries with a potency or affinity are not part of this list.
experimental_endpoint: Percent Effect (%)

compound: Cc1[nH]c(=O)[nH]c(=O)c1CN1CCCC(CCc2ccccc2)C1 (stereo unspecified)
result: -1.15
--
compound: COCCN1C[C@H]2[C@@H](C1)N(Cc1ccc(C)o1)CC[C@H]2OC
result: -2.85
--
compound: CCC(NC(=O)c1ccco1)c1ccccc1OCC(=O)N1CCCC1 (stereo unspecified)
result: -0.841
--
compound: Cn1nc(CNC(=O)C2COc3ccccc3O2)cc1C1CC1 (stereo unspecified)
result: -5.12
--
compound: COCCNC(=O)[C@H]1CN(c2nnc(C)s2)C[C@H]2OCC[C@@H]12
result: -2.67
--
compound: CC(C)n1cc(C(=O)N2Cc3ccccc3OC3(CCOCC3)C2)cn1
result: -4.16

====

- tgt: Tyrosyl-tRNA synthetase, putative (Trypanosoma cruzi (strain CL Brener))
- Sequence (whole entry): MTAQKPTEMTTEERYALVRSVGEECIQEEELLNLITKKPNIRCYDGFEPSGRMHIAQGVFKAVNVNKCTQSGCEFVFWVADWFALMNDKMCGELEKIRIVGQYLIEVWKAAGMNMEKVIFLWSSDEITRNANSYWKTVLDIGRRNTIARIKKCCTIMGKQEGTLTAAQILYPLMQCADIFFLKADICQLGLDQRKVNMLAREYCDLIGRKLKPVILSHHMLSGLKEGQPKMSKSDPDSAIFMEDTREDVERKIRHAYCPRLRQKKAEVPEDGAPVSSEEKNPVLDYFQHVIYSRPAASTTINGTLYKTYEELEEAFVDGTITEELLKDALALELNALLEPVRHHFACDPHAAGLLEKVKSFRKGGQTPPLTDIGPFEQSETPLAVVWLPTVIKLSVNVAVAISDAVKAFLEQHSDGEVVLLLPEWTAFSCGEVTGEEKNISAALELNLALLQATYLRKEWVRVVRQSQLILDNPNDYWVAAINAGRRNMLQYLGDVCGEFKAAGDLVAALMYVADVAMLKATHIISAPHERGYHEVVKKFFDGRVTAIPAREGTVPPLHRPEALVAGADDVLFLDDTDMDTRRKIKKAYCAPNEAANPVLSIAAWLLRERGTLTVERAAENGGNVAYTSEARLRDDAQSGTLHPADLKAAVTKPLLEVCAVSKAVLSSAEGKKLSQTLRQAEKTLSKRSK
- run_description: Trypanosoma cruzi tyrosyl tRNA synthetase (TcYRS) SOP
- Format: functional
- Parameters: scale not given: direction of the effect not stated beside the values
- experimental_setup: 30 µM

compound: COCC(=O)N1CCC2(CC1)CCN(Cc1ccccn1)C2=O
readout_unit: %
Percent Effect: -5.13

compound: O=C(C[C@@H]1COC[C@H]2CN(Cc3ccc(F)cc3)C[C@@H]12)N1CCOCC1
readout_unit: %
Percent Effect: -5.13

compound: CNC(=O)CN1CCCC12CCN(C(=O)c1ccsc1)CC2
readout_unit: %
Percent Effect: -92.5

compound: CS(=O)(=O)N1CCOCC2(CN(Cc3ccco3)CCO2)C1 (centres undefined)
readout_unit: %
Percent Effect: 11.1

compound: c1ccc(-c2cnc(CNCC3CCCN3c3cccnn3)o2)cc1 (centres undefined)
readout_unit: %
Percent Effect: 21.2

compound: CCCc1c(C(=O)NC2CCCC2)nnn1-c1ccc(OC)cc1
readout_unit: %
Percent Effect: 7.5

compound: Cc1nccn1C1CCCN(C(=O)c2ccc3c(c2)NC(=O)CO3)C1 (centres undefined)
readout_unit: %
Percent Effect: 16.1

compound: Cc1ccc(-c2cc(CN3CCCC(Cn4cncn4)C3)on2)cc1 (centres undefined)
readout_unit: %
Percent Effect: 4.71

compound: O=C(NCc1ccccc1-n1cccn1)N1CCN2CCCCC2C1 (centres undefined)
readout_unit: %
Percent Effect: 10.3

compound: Cc1ccc(S(=O)(=O)N2CCOc3ccccc32)cc1C(=O)O
readout_unit: %
Percent Effect: 6.02

compound: N#Cc1cc(NC(=O)c2ccsc2)ccc1N1CCC(O)CC1
readout_unit: %
Percent Effect: 14.6

compound: CC(=O)NCCNC(=O)c1sc(-c2ccc(C)cc2C)nc1C
readout_unit: %
Percent Effect: 11

compound: CCn1nc(C)c2ncnc(NCCCN3CCOCC3)c21
readout_unit: %
Percent Effect: 12.8

compound: Cc1nc(CN2CCOCC3(CCN(c4cccnc4)CC3)C2)cs1
readout_unit: %
Percent Effect: 11

compound: CCNC(=O)C1CCN(Cc2csc(-c3ccc(C)o3)n2)CC1
readout_unit: %
Percent Effect: 20.2

compound: COCCN1CCC(CN(CC2CCCO2)C(=O)CCNC(C)=O)CC1 (centres undefined)
readout_unit: %
Percent Effect: 0

compound: CC(C(=O)Nc1ncccn1)N1CCCN(c2nccs2)CC1 (centres undefined)
readout_unit: %
Percent Effect: 1.21

compound: CC(C)c1noc(CCC(=O)NCC2CCOC2)n1 (centres undefined)
readout_unit: %
Percent Effect: 17.9

compound: CC(Cn1cccn1)NC(=O)NCc1cccnc1OC1CCCC1 (centres undefined)
readout_unit: %
Percent Effect: 10.3

compound: CCc1nnc(CNCC2CCN(CC(O)c3ccccc3)CC2)o1 (centres undefined)
readout_unit: %
Percent Effect: 12.7

compound: CC(C)(C)C(=O)N1CCC(c2nc(O)cc(-c3ccccn3)n2)CC1
readout_unit: %
Percent Effect: 1.3

compound: CCn1cc(NC(=O)NCC(O)CN2CCc3ccccc3C2)cn1 (centres undefined)
readout_unit: %
Percent Effect: 30.6

compound: CCC(NC(=O)c1ccco1)c1ccccc1OCC(=O)N1CCCC1 (centres undefined)
readout_unit: %
Percent Effect: 22.9

compound: CCc1nc(CN(C)C2CCN(CCc3ccccn3)C2)no1 (centres undefined)
readout_unit: %
Percent Effect: 15.4

====

- tgt: Sialic acid-binding Ig-like lectin 9 (Homo sapiens)
- run_description: Hs-Siglec9 ALPHAscreen SOP 20170721
- Set-up: scale not given: direction of the effect not stated beside the values
- experimental_setup: 10 µM
molecules and their reported Percent Effect

molecule: CC(Cn1cccn1)NC(=O)NCc1cccnc1OC1CCCC1 (centres undefined)
Percent Effect [%]: -3.26

molecule: O=C(O)c1cc(S(=O)(=O)Nc2cc(F)ccc2F)cc2c1OCCO2
Percent Effect [%]: 6.95

molecule: COc1ncccc1C(=O)N1CCC(CNC(C)=O)CC1
Percent Effect [%]: 3.6

molecule: Cc1ccc(CN2CCCn3c(nc(Cn4cncn4)cc3=O)C2)s1
Percent Effect [%]: -3.78

molecule: CCOC(=O)N1CCN(C(=O)c2sc(-c3ccccc3F)nc2C)CC1
Percent Effect [%]: 6.21

molecule: Cc1ccc(Cn2ccc(NS(C)(=O)=O)n2)cc1
Percent Effect [%]: -0.383

molecule: CC(C)c1nc2n(n1)CC(NCc1ncc(-c3ccccc3)o1)CC2 (centres undefined)
Percent Effect [%]: 5.78

molecule: Cc1ccc(CN2CCC(c3nnc(CN4CCCCC4)n3C)CC2)o1
Percent Effect [%]: 2.13

molecule: CC(=O)N1CCC2(CCN(C(=O)c3ccc(Cl)c(C(F)(F)F)c3)CC2)C1
Percent Effect [%]: 5.74

molecule: O=C(NCCO)C1(Cc2cc(-c3ccc(F)cc3F)no2)CCOCC1
Percent Effect [%]: -1.56

molecule: Cc1[nH]ncc1C(=O)N1CCCC(n2cncn2)C1 (centres undefined)
Percent Effect [%]: 26.4

molecule: CN1CCN(c2cc(CNC(=O)c3ccc(=O)[nH]n3)ccn2)CC1
Percent Effect [%]: -10.3

molecule: CCC(=O)N1CCN(C(=O)CCn2cccn2)CC1
Percent Effect [%]: 0.998

molecule: O=C(c1ccco1)N1C[C@H]2CCCN(Cc3cccs3)[C@H]2C1
Percent Effect [%]: -9.29

molecule: Cc1nc(CCNC(=O)NCc2ccc(N(C)C)nc2)cs1
Percent Effect [%]: 3.94

molecule: COCCN1C(=O)CCC12CCN(C(=O)CC1CC1)CC2
Percent Effect [%]: 0.0799

molecule: COCC(=O)N1CC[C@@H](O)[C@@H]1Cc1ccccc1
Percent Effect [%]: -3.29

molecule: Cc1cc(CN(C)C(=O)c2ccc(F)cc2Br)no1
Percent Effect [%]: -16.2

molecule: CN(C)CCN1C(=O)CCC12CCN(C(=O)c1cccnc1)CC2
Percent Effect [%]: -3.7

molecule: c1ccc(OCc2ccncc2)c(CNC2CCc3ncnn3C2)c1 (centres undefined)
Percent Effect [%]: -16.6

molecule: CN(C)C(=O)N1CCN(Cc2nnc(C(C)(C)C)o2)CC1
Percent Effect [%]: 3.54

molecule: COc1ccc(C2Nc3cc(Cl)ccc3C3=NCCN32)cc1OC (centres undefined)
Percent Effect [%]: 3.39

molecule: COCCN1CCc2cc(C(=O)NCC3CC3)c(NC(C)C)nc2CC1
Percent Effect [%]: 9.64

molecule: Cc1ccc(CN2CCC3(CC(C(=O)NCC4CC4)=NO3)C2)cc1C (centres undefined)
Percent Effect [%]: -4.65
